B1: C8orf76 (parent)
chain: YCAKLCEPQWFYEETESSDDVEVL

# Variants of: B1
# ASSAY_OVERVIEW: protein stability index of a GFP-peptide fusion (GPS, HEK-293T) (PSI 1-6); higher = more stable;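 note: lentivirally expressed fusions sorted by FACS into six bins by GFP to DsRed ratio, PSI derived from sequencing read proportions per bin multiplied by bin number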
# DETAILS: c terminus: a fixed tail appended
EXPERIMENTAL_ENDPOINT: protein stability index
Reply with just the number.

In [3]: df
Out[3]:
   mutation_annotation  readout_value
0                 W10S           4.48
1                  A3V           3.04
2                 S18E           2.54

Query: Consider the variant shown here: E14G What is its recorded protein stability index?
Reply: 2.11

Query: For the variant D19Q , what protein stability index is on record?
Reply: 2.2

Query: May I ask what protein stability index has been recorded for E14Y ?
Reply: 2.04
